# assay_summary: Binding affinity to Nickel cation assessed as retention ratio by measuring compound detected in elution fraction/total compound detected at 2.55 umol by immobilized metal-ion affinity chromatography
# experimental_context: dose 2.55 µmol
readout: Ratio
Reply briefly: the number, and no unit.

Please review the following examples before continuing.
NCCCC[C@H](N[C@@H](CCc1ccccc1)C(=O)O)C(=O)N1CCC[C@H]1C(=O)O; 0
Nc1ccccc1NC(=O)c1ccc(CNC(=O)OCc2cccnc2)cc1; 0.6
C[C@H](CSC(=O)c1ccccc1)C(=O)N1C[C@@H](Sc2ccccc2)C[C@H]1C(=O)O; 0.01

Give Ratio for the following compound: "O=C(O)c1cc(/N=N/c2ccc(S(=O)(=O)Nc3ccccn3)cc2)ccc1O" 1
